protocolDescription: Drug concentration at steady state in human at 600 mg, po BID after 12 hrs
Format: ADME, organism-based
testConditions: in vivo, read-out: Css
measuredAttribute: concentration at 12 h (µM)
Write down the numeric answer in µM and omit the unit.

concentration at 12 h reported for this compound CC(C)c1nc(CN(C)C(=O)N[C@H](C(=O)N[C@@H](Cc2ccccc2)C[C@H](O)[C@H](Cc2ccccc2)NC(=O)OCc2cncs2)C(C)C)cs1 [RITONAVIR] : 34.4

###

assayedSystem: Bile salt export pump (Homo sapiens)
Sequence (O95342 whole entry): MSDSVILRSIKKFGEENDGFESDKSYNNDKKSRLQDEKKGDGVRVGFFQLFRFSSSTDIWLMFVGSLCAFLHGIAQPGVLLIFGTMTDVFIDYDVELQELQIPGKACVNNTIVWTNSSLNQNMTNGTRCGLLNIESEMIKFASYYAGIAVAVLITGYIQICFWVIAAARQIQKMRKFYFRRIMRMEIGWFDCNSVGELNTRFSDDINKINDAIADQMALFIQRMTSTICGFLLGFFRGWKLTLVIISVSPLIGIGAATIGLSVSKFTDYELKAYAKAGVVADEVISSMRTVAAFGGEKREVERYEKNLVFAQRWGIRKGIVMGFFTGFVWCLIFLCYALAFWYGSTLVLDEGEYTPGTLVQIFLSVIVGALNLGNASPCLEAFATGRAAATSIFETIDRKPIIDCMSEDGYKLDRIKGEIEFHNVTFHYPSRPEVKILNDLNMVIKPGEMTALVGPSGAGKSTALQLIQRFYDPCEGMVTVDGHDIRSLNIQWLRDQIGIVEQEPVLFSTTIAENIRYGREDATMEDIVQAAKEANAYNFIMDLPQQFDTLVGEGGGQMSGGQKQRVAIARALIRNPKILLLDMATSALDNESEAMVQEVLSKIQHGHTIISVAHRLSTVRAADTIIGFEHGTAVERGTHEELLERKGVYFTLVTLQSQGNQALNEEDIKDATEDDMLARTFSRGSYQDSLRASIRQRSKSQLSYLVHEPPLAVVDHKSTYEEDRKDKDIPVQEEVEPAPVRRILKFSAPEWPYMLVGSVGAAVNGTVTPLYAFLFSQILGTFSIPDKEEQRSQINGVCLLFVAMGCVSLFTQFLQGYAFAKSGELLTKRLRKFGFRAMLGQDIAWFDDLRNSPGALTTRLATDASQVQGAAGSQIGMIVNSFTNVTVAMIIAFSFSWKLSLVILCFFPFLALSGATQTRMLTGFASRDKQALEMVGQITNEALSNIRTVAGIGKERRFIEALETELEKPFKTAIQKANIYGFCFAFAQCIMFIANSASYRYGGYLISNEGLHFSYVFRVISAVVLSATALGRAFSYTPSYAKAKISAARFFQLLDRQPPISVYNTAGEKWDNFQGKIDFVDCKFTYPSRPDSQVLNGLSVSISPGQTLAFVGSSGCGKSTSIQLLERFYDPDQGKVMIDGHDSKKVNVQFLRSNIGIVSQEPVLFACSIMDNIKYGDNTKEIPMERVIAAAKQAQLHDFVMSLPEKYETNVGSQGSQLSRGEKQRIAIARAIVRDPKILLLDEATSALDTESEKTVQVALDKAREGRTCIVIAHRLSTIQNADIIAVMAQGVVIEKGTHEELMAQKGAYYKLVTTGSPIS
protocolDescription: Inhibition of human BSEP overexpressed in Sf9 cell membrane vesicles assessed as uptake of [3H]-taurocholate in presence of ATP measured after 15 to 20 mins by membrane vesicle transport assay
Below, each entry is listed alongside its reported pIC50.
When answering, recall that pIC50 equals minus log10 of the concentration in mol/L, and write that number alone.

Worked examples follow.
pIC50 reported for this molecule CC#C[C@]1(O)CC[C@H]2[C@@H]3CCC4=CC(=O)CCC4=C3[C@@H](c3ccc(N(C)C)cc3)C[C@@]21C [MIFEPRISTONE] : 5.69

pIC50 reported for this molecule C#C[C@]1(O)CC[C@H]2[C@@H]3CCc4cc(O)ccc4[C@H]3CC[C@@]21C [ETHINYL ESTRADIOL] : 4.85

---
pIC50 reported for this molecule CC[C@H]1OC(=O)[C@H](C)C(=O)[C@H](C)[C@@H](O[C@@H]2O[C@H](C)C[C@H](N(C)C)[C@H]2O)[C@](C)(OC)C[C@@H](C)C(=O)[C@H](C)[C@H]2N(CCCCn3cnc(-c4cccnc4)c3)C(=O)O[C@]12C [TELITHROMYCIN] : 5.30

pIC50 reported for this molecule C=C1C[C@@H]2[C@H](CC[C@]3(C)C(=O)CC[C@@H]23)[C@@]2(C)C=CC(=O)C=C12 [EXEMESTANE] : 4.05

pIC50 reported for this molecule CCOC(=O)N1CCC(=C2c3ccc(Cl)cc3CCc3cccnc32)CC1 [LORATADINE] : 4.92

pIC50 reported for this molecule CNC1=Nc2ccc(Cl)cc2C(c2ccccc2)=[N+]([O-])C1 [CHLORDIAZEPOXIDE] : 4.36

pIC50 reported for this molecule CCOC(=O)O[C@]1(C(=O)OCCl)CC[C@H]2[C@@H]3CCC4=CC(=O)C=C[C@]4(C)[C@H]3[C@@H](O)C[C@@]21C [LOTEPREDNOL ETABONATE] : 4.39

###

protocolDescription: AUC in human at 20 to 100 mg, po QD or 60 mg, po BID after 12 hrs
Type: ADME, organism-based
testConditions: in vivo
measuredAttribute: AUC at 12 h (µM·h)
Write down the numeric answer in µM·h and omit the unit.

AUC at 12 h reported for this molecule COCCCOc1ccnc(C[S+]([O-])c2nc3ccccc3[n-]2)c1C.[Na+] (stereo unspecified) [RABEPRAZOLE SODIUM] : 14.5

###

Below, each entry is listed alongside its reported IC50.
assayedSystem: UniProt O95342
protocolDescription: Inhibition of human BSEP overexpressed in Sf9 cell membrane vesicles assessed as uptake of [3H]-taurocholate in presence of ATP measured after 15 to 20 mins by membrane vesicle transport assay
Write down the numeric answer in µM and omit the unit.

IC50 reported for this compound CC(=O)SCC(Cc1ccccc1)C(=O)NCC(=O)OCc1ccccc1 (stereo not drawn) : 20.3

# input for lookup
IC50 reported for this compound CC(=O)O[C@]1(C(C)=O)CC[C@H]2[C@@H]3C=C(C)C4=CC(=O)CC[C@]4(C)[C@H]3CC[C@@]21C [MEGESTROL ACETATE] : 17.8
